Target: thrombin (Homo sapiens, UniProt P00734)
Construct: consists of two polypeptide chains of 36 (light chain) and 259 amino acid
Experiment: Thrombin inhibition screen of crude macrocycle reactions (residual thrombin activity, fluorogenic substrate Z-Gly-Gly-Arg-AMC)
Assay type: biochemical
Settings: 10 µM macrocycle concentration; crude reactions, Library 1a-l; scaffold AA1-AA2-AA3 combined with 1-16 or '-'
Numbered stars: 1 amine (or outer) side, 2 acyl side, 3 side chain; on linkers, the order of the positions; unused ones are H or OH. Bridge positions count the residues as written; N and C are the ends. Square brackets hold non-standard residues; d marks the D form. Peptide text beside a SMILES is read from it. * marks the point of attachment. 2Thenoyl(5-Cl) = O=C(c1ccc(Cl)s1)*; Cysteamide = C(CS[*:3])N[*:1]; Bz = O=C(c1ccccc1)*; Mpa = O=C(O)CCS
Here the recorded percent residual thrombin activity is given for each entry.
measurement-name: percent residual thrombin activity (%)

>>> quantitative_readout("Cc1nnsc1C(=O)NCCC[C@@H]1NC(=O)CCSSCCNC(=O)c2ccc(cc2)CNC(=O)[C@H](Cc2c[nH]c3ccccc23)NC1=O [D2-W-B3/15]")
116.257
>>> quantitative_readout("O=C(NCCCC[C@@H]1NC(=O)[C@@H]2CCCN2C(=O)CCSSCCNC(=O)[C@@H](Cc2ccc(O)cc2)NC1=O)c1ccccc1 [B1-D1-y/1] ([Mpa]PK(Bz)[dY]-Cysteamide; disulfide 1-C)")
105.697
>>> quantitative_readout("COc1ccc(C(=O)NCCCC[C@@H]2NC(=O)[C@@H](C)NC(=O)CCSSCCNC(=O)c3cccc(c3)CNC2=O)cn1 [a-D1-B5/10]")
109.062
>>> quantitative_readout("COc1ccc(C(=O)NCCC[C@@H]2NC(=O)[C@H]3CCCN(C3)C(=O)[C@H](CC(C)C)NC(=O)CCSSCCNC2=O)cn1 [L-B4-D2/10]")
107.664
>>> quantitative_readout("CC1NC(=O)C2CCCN2C(=O)C(CCCCNC(=O)c2ccc(Cl)s2)NC(=O)CCSSCCNC1=O (centres unmarked) [D1-B1-a/14] ([Mpa]K(2Thenoyl(5-Cl))PA-Cysteamide; disulfide 1-C; configuration not given here)")
96.3758
>>> quantitative_readout("COc1ccc(C(=O)NCCC[C@@H]2NC(=O)CCSSCCNC(=O)[C@H](Cc3ccc(O)cc3)NC(=O)c3cccc(c3)CNC2=O)cn1 [D2-B5-Y/10]")
96.9489
>>> quantitative_readout("O=C1CCSSCCNC(=O)[C@H](Cc2ccc(O)cc2)NC(=O)[C@H](CCCNC(=O)COc2ccccc2)NC(=O)C2(CC2)CN1 [B6-D2-Y/13]")
105.408
>>> quantitative_readout("C[C@H]1NC(=O)CCSSCCNC(=O)[C@@H]2CCCN2C(=O)[C@H](CCCCNC(=O)c2ccc(Cl)s2)NC1=O [a-D1-B1/14] ([Mpa][dA]K(2Thenoyl(5-Cl))P-Cysteamide; disulfide 1-C)")
109.871
>>> quantitative_readout("O=C1CCSSCCNC(=O)[C@@H](Cc2ccccc2)NC(=O)[C@H]2CCCN(C2)C(=O)[C@H](CCCNC(=O)c2c[nH]c(=O)cn2)N1 [D2-B4-f/9]")
109.579
>>> quantitative_readout("O=C(NCCCC[C@@H]1NC(=O)[C@@H](Cc2c[nH]c3ccccc23)NC(=O)[C@H]2CCCN(C2)C(=O)CCSSCCNC1=O)c1c[nH]c(=O)cn1 [B4-W-D1/9]")
96.1174
>>> quantitative_readout("CC(C)[C@@H]1NC(=O)[C@H](CCCCNC(=O)c2c[nH]c(=O)cn2)NC(=O)CCSSCCNC(=O)C2(CC2)CNC1=O [D1-V-B6/9]")
106.409
